- Tested on: 857933-349-R-J2-PDC complex spheroid viability
- assay.remarks: Anticancer human tumor 857933-349-R-J2-PDC patient-derived colon adenocarcinoma cell line growth inhibition [POLQ]
- recorded.conditions: second compound 0.0316 µM; first compound 10 µM; active compounds read low
- Procedure: Multicellular complex tumor spheroid response to Polymerase (POL) inhibitors (novobiocin, ART-558, RP6685) in combination with a variety of drugs and investigational agents in selected tumor cell lines The POL inhibitors (novobiocin, ART-558, and RP6685) were evaluated both individually and in combination with standard of care and investigational anticancer small molecules within a complex spheroid model of solid tumors. . […]
recorded.endpoint: viability, T/C

molecule	viability, T/C
CC1COCCN1c1cc(-c2ccnn2C)c2ccnc(-c3ccn[nH]3)c2n1 (stereo not drawn) + Nc1ccc(C#CCN(C(=O)Cc2ncc(C(F)(F)F)cc2C(F)(F)F)c2ccc(F)cc2)nn1	43.8%
CC1COCCN1c1cc(C2(S(C)(=N)=O)CC2)nc(-c2ccnc3[nH]ccc23)n1 (stereo not drawn) + Nc1ccc(C#CCN(C(=O)Cc2ncc(C(F)(F)F)cc2C(F)(F)F)c2ccc(F)cc2)nn1	43.2%

Write down viability, T/C measured for item CNCc1ccc(-c2[nH]c3cc(F)cc4c3c2CCNC4=O)cc1 + COC1C(OC(N)=O)C(O)C(Oc2ccc3c(O)c(NC(=O)c4ccc(O)c(CC=C(C)C)c4)c(=O)oc3c2C)OC1(C)C
69.5%

* * *

- Tested on: 857933-349-R-J2-PDC complex spheroid viability
- assay.remarks: Anticancer human tumor 857933-349-R-J2-PDC cell line growth inhibition [POLQ];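 also: spheroids exposed to compounds for seven days before readout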
- recorded.conditions: second compound 0.0316 µM; first compound 0.0316 µM; active compounds read low
viability, T/C strictly less than 80% = yes (1). Otherwise no (0).

Before answering, review these 3 worked examples.
compound	class.assignment
C=CCn1c(=O)c2cnc(Nc3ccc(N4CCN(C)CC4)cc3)nc2n1-c1cccc(C(C)(C)O)n1 + COC1C(OC(N)=O)C(O)C(Oc2ccc3c(O)c(NC(=O)c4ccc(O)c(CC=C(C)C)c4)c(=O)oc3c2C)OC1(C)C	yes (1)
C=CC(=O)N1CCN(c2nc(=O)n(-c3c(C)ccnc3C(C)C)c3nc(-c4c(O)cccc4F)c(F)cc23)C(C)C1 (stereo not given) + Nc1ccc(C#CCN(C(=O)Cc2ncc(C(F)(F)F)cc2C(F)(F)F)c2ccc(F)cc2)nn1	no (0)
CCc1cc2c(N3CCc4c(cc(Cn5ccnc5)cc4-c4cn(C)nc4C(F)(F)F)C3=O)cc(C)nc2c(OC)n1 + Nc1ccc(C#CCN(C(=O)Cc2ncc(C(F)(F)F)cc2C(F)(F)F)c2ccc(F)cc2)nn1	no (0)

Does CC1COCCN1c1cc(C2(O)CC3CCC(C2)O3)c2cnn(-c3ccn[nH]3)c2n1 (stereo not given) + Nc1ccc(C#CCN(C(=O)Cc2ncc(C(F)(F)F)cc2C(F)(F)F)c2ccc(F)cc2)nn1 have viability, T/C strictly under 80%?
yes (1)

* * *

Kindly state viability, T/C for each of the entries shown.
- Test system: 857933-349-R-J2-PDC complex spheroid viability
- assay.remarks: Anticancer human tumor 857933-349-R-J2-PDC cell line growth inhibition [POLQ];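 also: spheroids exposed to compounds for seven days before readout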
- recorded.conditions: second compound 0.0316 µM; first compound 0.1 µM; active compounds read low
One number for each entry, in %.

Below are some compounds; for each one, tell me its viability, T/C.
1. COc1cccc(OCCCN)c1-c1cc(Nc2cnc(C#N)cn2)n[nH]1 + Nc1ccc(C#CCN(C(=O)Cc2ncc(C(F)(F)F)cc2C(F)(F)F)c2ccc(F)cc2)nn1
2. C=CCn1c(=O)c2cnc(Nc3ccc(N4CCN(C)CC4)cc3)nc2n1-c1cccc(C(C)(C)O)n1 + Nc1ccc(C#CCN(C(=O)Cc2ncc(C(F)(F)F)cc2C(F)(F)F)c2ccc(F)cc2)nn1

1: 68.4; 2: 105

# per-item lookup of viability, T/C; items listed below
1. COc1cc(C2c3cc4c(cc3C(OC3OC5COC(C)OC5C(O)C3O)C3COC(=O)C23)OCO4)cc(OC)c1O (stereo not drawn) + Cc1cccc(N(C)C(=O)C2C(O)CCN2c2nc(C)cc(C(F)(F)F)c2C#N)c1
2. C#Cc1c(F)ccc2cc(O)cc(-c3ncc4c(N5CC6CCC(C5)N6)nc(OCC56CCCN5CC(F)C6)nc4c3F)c12 (stereo not drawn) + COC1C(OC(N)=O)C(O)C(Oc2ccc3c(O)c(NC(=O)c4ccc(O)c(CC=C(C)C)c4)c(=O)oc3c2C)OC1(C)C
3. COc1ccc([C@@H](O)c2cc(-c3ncnc4cc(N5CCOCC5)ccc34)c(F)cc2Cl)nn1 + Cc1cccc(N(C)C(=O)C2C(O)CCN2c2nc(C)cc(C(F)(F)F)c2C#N)c1
4. CC1COCCN1c1cc(C2(S(C)(=N)=O)CC2)nc(-c2ccnc3[nH]ccc23)n1 (stereo not drawn) + Nc1ccc(C#CCN(C(=O)Cc2ncc(C(F)(F)F)cc2C(F)(F)F)c2ccc(F)cc2)nn1
5. O=c1[nH]cc(F)c(=O)[nH]1 + Cc1cccc(N(C)C(=O)C2C(O)CCN2c2nc(C)cc(C(F)(F)F)c2C#N)c1
6. CC1COCCN1c1cc(-c2ccnn2C)c2ccnc(-c3ccn[nH]3)c2n1 (stereo not drawn) + Nc1ccc(C#CCN(C(=O)Cc2ncc(C(F)(F)F)cc2C(F)(F)F)c2ccc(F)cc2)nn1

1. 81.9
2. 94.9
3. 90.8
4. 110
5. 85.8
6. 65.6

Provide each entry's viability, T/C from the list below.
1. Nc1ccn(C2OC(CO)C(O)C2(F)F)c(=O)n1 (stereo not drawn) + Cc1cccc(N(C)C(=O)C2C(O)CCN2c2nc(C)cc(C(F)(F)F)c2C#N)c1
2. CCc1cc2c(N3CCc4c(cc(Cn5ccnc5)cc4-c4cn(C)nc4C(F)(F)F)C3=O)ccnc2c(OC)n1 + Nc1ccc(C#CCN(C(=O)Cc2ncc(C(F)(F)F)cc2C(F)(F)F)c2ccc(F)cc2)nn1
3. CC(C)n1c(=O)n(C)c2cnc3cc(F)c(-c4ccc(OCCCN5CCCCC5)nc4)cc3c21 + Cc1cccc(N(C)C(=O)C2C(O)CCN2c2nc(C)cc(C(F)(F)F)c2C#N)c1
4. CNCc1ccc(-c2[nH]c3cc(F)cc4c3c2CCNC4=O)cc1 + Cc1cccc(N(C)C(=O)C2C(O)CCN2c2nc(C)cc(C(F)(F)F)c2C#N)c1
5. CC1COCCN1c1cc(-c2ccnn2C)c2ccnc(-c3ccn[nH]3)c2n1 (stereo not drawn) + COC1C(OC(N)=O)C(O)C(Oc2ccc3c(O)c(NC(=O)c4ccc(O)c(CC=C(C)C)c4)c(=O)oc3c2C)OC1(C)C

1: 62.4; 2: 96.4; 3: 78.1; 4: 111; 5: 66.2
